All figures here come from PubChem BioAssay (EPA / NIEHS).

# system_under_test: Androgen Receptor/SRC-1 Co-activator, AR (gene 367) (UniProt P10275)
# Sequence (P10275 whole entry, looked up): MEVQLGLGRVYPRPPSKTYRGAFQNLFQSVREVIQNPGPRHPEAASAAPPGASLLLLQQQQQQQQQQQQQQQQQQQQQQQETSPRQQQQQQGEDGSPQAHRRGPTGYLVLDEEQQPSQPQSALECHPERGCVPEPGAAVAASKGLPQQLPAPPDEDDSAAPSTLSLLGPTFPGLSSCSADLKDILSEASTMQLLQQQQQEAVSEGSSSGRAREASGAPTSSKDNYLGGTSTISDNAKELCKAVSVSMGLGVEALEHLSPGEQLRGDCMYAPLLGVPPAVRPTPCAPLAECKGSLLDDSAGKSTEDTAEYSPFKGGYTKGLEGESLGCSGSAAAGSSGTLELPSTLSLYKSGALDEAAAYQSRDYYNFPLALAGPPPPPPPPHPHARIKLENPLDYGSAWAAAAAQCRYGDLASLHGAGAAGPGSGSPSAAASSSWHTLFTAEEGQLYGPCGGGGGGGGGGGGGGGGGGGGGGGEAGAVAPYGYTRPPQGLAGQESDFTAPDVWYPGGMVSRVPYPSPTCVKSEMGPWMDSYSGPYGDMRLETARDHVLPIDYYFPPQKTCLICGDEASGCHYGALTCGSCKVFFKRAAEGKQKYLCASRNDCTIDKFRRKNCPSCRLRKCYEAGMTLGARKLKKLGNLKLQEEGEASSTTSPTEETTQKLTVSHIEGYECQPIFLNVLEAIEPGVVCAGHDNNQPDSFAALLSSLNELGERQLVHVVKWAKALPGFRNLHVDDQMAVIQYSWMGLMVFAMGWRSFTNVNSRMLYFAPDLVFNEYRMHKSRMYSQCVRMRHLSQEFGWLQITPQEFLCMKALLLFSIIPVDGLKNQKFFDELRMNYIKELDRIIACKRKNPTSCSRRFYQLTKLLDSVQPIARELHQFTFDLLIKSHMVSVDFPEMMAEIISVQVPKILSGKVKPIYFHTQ
# assay_explanation: OT_AR_ARSRC1_0960: Odyssey Thera (OT) 16-hour HEK293T Protein-Complementation Assay for Androgen Receptor/SRC-1 Co-activator (AID 2283353);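 also: actives raise the signal above DMSO so potency reflects increased AR and SRC-1 complex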
Active and inactive are the calls of the source. The calls were made as follows: active = hit-call score of the fitted dose curve at least 0.9, where 1 is the maximum; inconclusive = response in the unintended direction; inactive = score below 0.9.
A correct response names exactly one class from yes (1) for active, no (0) for inactive

Some solved cases for reference:
{"columns": ["chemical_smiles", "cat"],
 "data": [
  ["OCCOCCOCCO", "no (0)"],
  ["CCN(CC)C(=S)SSC(=S)N(CC)CC", "yes (1)"],
  ["CCc1cccc(CC)c1N", "no (0)"],
  ["CCCCOC(=O)c1ccccc1", "no (0)"]
]}

Continue with the next compound.
-- ask Given `C=CCc1cc(S(=O)(=O)c2ccc(O)c(CC=C)c2)ccc1O` , state the outcome it received in this test.
-- reply yes (1)
